Recorded pKd values for a group of compounds are listed next.
# TARGET SYSTEM: Kvβ3 (Mus musculus, UniProt F6YMI4)
# Sequence (F6YMI4 1-404): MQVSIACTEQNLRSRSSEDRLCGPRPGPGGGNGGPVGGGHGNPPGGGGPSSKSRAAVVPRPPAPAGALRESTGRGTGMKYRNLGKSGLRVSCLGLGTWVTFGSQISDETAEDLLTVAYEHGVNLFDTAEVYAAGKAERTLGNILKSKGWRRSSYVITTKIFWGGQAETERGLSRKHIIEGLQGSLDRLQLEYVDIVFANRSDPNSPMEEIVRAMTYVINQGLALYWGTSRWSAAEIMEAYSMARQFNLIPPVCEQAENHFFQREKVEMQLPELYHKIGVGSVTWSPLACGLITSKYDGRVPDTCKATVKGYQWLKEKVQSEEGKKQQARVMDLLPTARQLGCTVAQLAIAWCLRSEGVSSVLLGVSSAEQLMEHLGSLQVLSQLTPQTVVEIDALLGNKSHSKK
Lab note — pKd values are minus log10 of concentrations in M.

COMPOUND | MEASUREMENT
NC(=O)c1ccc[n+]([C@@H]2O[C@H](COP(=O)(O)OP(=O)(O)OC[C@H]3O[C@@H](n4cnc5c(N)ncnc54)[C@H](OP(=O)(O)O)[C@@H]3O)[C@@H](O)[C@H]2O)c1 [NADP^+] | 4.42

[ask] pKd of NC(=O)C1=CN([C@@H]2O[C@H](COP(=O)(O)OP(=O)(O)OC[C@H]3O[C@@H](n4cnc5c(N)ncnc54)[C@H](OP(=O)(O)O)[C@@H]3O)[C@@H](O)[C@H]2O)C=CC1 [NADPH] on Kvβ3 (Mus musculus, UniProt F6YMI4)?
[reply] 5.25
